Target: UniProt:O68183
Sequence (O68183 entry or part of it): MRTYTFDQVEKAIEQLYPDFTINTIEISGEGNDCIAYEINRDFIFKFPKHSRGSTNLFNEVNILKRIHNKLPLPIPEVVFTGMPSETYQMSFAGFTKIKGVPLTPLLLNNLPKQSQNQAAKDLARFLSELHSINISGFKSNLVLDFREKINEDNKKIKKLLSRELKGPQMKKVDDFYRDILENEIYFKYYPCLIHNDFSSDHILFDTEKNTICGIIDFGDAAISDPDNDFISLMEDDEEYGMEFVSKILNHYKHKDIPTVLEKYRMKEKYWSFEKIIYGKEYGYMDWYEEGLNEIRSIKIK
Assay: Isothermal titration calorimetry of aminoglycoside binding
Settings: read-out: Kd
pKd: −log10 of the molar value.
recorded_metric: pKd

{"columns": ["cpd_smiles", "target_of_assay", "reported_value"],
 "data": [
  ["CN[C@@H]1[C@@H](O)[C@@H](O[C@@H]2[C@@H](O)[C@H](O[C@H]3O[C@H]([C@@H](C)O)[C@@H](O)[C@H](O)[C@H]3N)[C@@H](N)C[C@H]2N)OC[C@]1(C)O", "UniProt:O68183", 4.56]
]}
